This collection of values is drawn from ChEMBL document CHEMBL1201862.

# Tested on: EKVX
# TEST METHOD NOTES: NCI tumour cell line growth inhibition, 48 h
The source made the active and inactive calls. No stated cut-off is given here; in the data, active = GI50 up to about 1.1 µM and inactive = higher.
Just give me one of these, please: label 1 (active), label 0 (inactive)

Use these answered entries as a reference point.
compound="Cc1ccc(S(=O)(=O)C2=c3ncccc3=C3C(=O)c4ccccc4C(=O)C32)cc1 (stereo not given)" class="label 0"
compound="CCc1cccc(C(C)CC)c1NC(=O)C(=O)Cc1nc2ccccc2o1 (stereo not given)" class="label 0"
compound="CC[C@H](C)[C@@H]([C@@H](CC(=O)N1CCC[C@H]1[C@H](OC)[C@@H](C)C(=O)NCCc1ccccc1)OC)N(C)C(=O)C(NC(=O)[C@H](C(C)C)N(C)C)C(C)C (stereo not given in full)" class="label 1"
compound="C=C(CC[C@@H](C)[C@H]1CC[C@@]2(C)C3=C(CC[C@]12C)[C@@]1(C)CC[C@H](O)[C@@H](C)C1CC3)C(C)C (stereo not given in full)" class="label 0"

Now, please, on to the next compound.
Inquiry: # outcome recorded in this test, key = Cc1cc(=O)oc2cc(OC(=O)Nc3ccccc3)ccc12
Reply text: label 0
